# System: Escherichia coli TOP10;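 also: peptides expressed intracellularly from a pBAD plasmid library in pooled LB shake-flask culture, induced with 0.3% L-arabinose, DNA abundance read by NGS, three biological replicates, DESeq2 with apeglm shrinkage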
# EXPERIMENT NOTES: shrunken log2 fold change of peptide-encoding DNA abundance (4.5 h post-induction vs induction); higher = less antimicrobial activity (less host growth inhibition)
# RUN PARAMETERS: time post-induction: 4.5 h; library: site-saturation at positions 5, 18, 19, 20
The recorded shrunken log2 fold change of each item maps onto one of these classes: bin 0 = under -0.1, bin 1 = from -0.1 up to 0.03, bin 2 = 0.03 and over

Input line: Sort into band: RRIRSRPPRLPRPRPRPWCGPRP
Output line: bin 2

Input line: Sort into band: RRIRARPPRLPRPRPRPIVFPRP
Output line: bin 1

Input line: Sort into band: RRIRSRPPRLPRPRPRPRNIPRP
Output line: bin 0

Input line: Sort into band: RRIRHRPPRLPRPRPRPQCFPRP
Output line: bin 1

Input line: Sort into band: RRIRMRPPRLPRPRPRPPQPPRP
Output line: bin 2

Input line: Sort into band: RRIRWRPPRLPRPRPRPAHFPRP
Output line: bin 2

Input line: Sort into band: RRIRKRPPRLPRPRPRPLVNPRP
Output line: bin 1

Input line: Sort into band: RRIRGRPPRLPRPRPRPYANPRP
Output line: bin 1

Input line: Sort into band: RRIRKRPPRLPRPRPRPWTSPRP
Output line: bin 0

Input line: Sort into band: RRIRPRPPRLPRPRPRPQFDPRP
Output line: bin 1

Input line: Sort into band: RRIRSRPPRLPRPRPRPLRNPRP
Output line: bin 2

Input line: Sort into band: RRIRFRPPRLPRPRPRPMTMPRP
Output line: bin 0

Input line: Sort into band: RRIRCRPPRLPRPRPRPDGNPRP
Output line: bin 0

Input line: Sort into band: RRIRVRPPRLPRPRPRPRYTPRP
Output line: bin 2

Input line: Sort into band: RRIRKRPPRLPRPRPRPLVRPRP
Output line: bin 2

Input line: Sort into band: RRIRHRPPRLPRPRPRPFQHPRP
Output line: bin 1

Input line: Sort into band: RRIRYRPPRLPRPRPRPRRQPRP
Output line: bin 0

Input line: Sort into band: RRIRGRPPRLPRPRPRPDHPPRP
Output line: bin 1

Input line: Sort into band: RRIRNRPPRLPRPRPRPPEGPRP
Output line: bin 2

Input line: Sort into band: RRIRMRPPRLPRPRPRPQGNPRP
Output line: bin 1

Input line: Sort into band: RRIRIRPPRLPRPRPRPSEFPRP
Output line: bin 0

Input line: Sort into band: RRIRFRPPRLPRPRPRPMGFPRP
Output line: bin 1

Input line: Sort into band: RRIRNRPPRLPRPRPRPNHVPRP
Output line: bin 0

Input line: Sort into band: RRIRIRPPRLPRPRPRPKCSPRP
Output line: bin 2

Input line: Sort into band: RRIRCRPPRLPRPRPRPEIIPRP
Output line: bin 0

Input line: Sort into band: RRIRHRPPRLPRPRPRPGMYPRP
Output line: bin 0

Input line: Sort into band: RRIRARPPRLPRPRPRPLELPRP
Output line: bin 2

Input line: Sort into band: RRIRCRPPRLPRPRPRPEWPPRP
Output line: bin 2

Input line: Sort into band: RRIRPRPPRLPRPRPRPLFTPRP
Output line: bin 0

Input line: Sort into band: RRIRLRPPRLPRPRPRPYIWPRP
Output line: bin 1

Input line: Sort into band: RRIRLRPPRLPRPRPRPDDAPRP
Output line: bin 0

Input line: Sort into band: RRIRHRPPRLPRPRPRPFDTPRP
Output line: bin 0
